# target-entity: cynomolgus CD3εδ Fc heterodimer (Cy CD3ε Fc / CD3δ Fc-HIS) (cynomolgus) (UniProt Q95LI8)
# Sequence (chain, as listed by the source mutant, chain 1 of 2): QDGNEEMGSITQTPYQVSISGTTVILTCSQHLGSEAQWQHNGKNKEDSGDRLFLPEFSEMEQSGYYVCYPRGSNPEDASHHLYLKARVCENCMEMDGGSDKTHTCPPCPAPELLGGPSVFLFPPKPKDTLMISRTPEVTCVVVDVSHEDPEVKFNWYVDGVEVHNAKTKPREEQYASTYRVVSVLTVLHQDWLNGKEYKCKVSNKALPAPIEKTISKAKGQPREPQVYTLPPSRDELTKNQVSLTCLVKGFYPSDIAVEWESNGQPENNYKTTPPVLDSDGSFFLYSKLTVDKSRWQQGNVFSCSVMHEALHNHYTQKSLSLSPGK
# Sequence (Q95LI8 22-100, stated change not applied, chain 2 of 2): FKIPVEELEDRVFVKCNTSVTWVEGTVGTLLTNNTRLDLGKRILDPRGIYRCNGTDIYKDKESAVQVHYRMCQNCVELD
# assay-overview: BLI (ForteBio), pH 6.0
kon overview
measured-attribute: kon (M⁻¹ s⁻¹)

SAD10320_P04_D11 (antibody, V domains shown) VH: QVQLVQSGAEVKKPGASVKVSCKASGFNIKDYYMHWVRQAPGQRLQWMGWIDLENANTIYDAKFQGRVTITRDTSASTAYMELSSLRSEDTAVYYCARDAYGHVFYDVWGQGTLVTVSS VL: DIVMTQSPDSLAVSLGERATINCKSSQSLLNARTGKNYLAWYQQKPGQPPKLLIYWASTRESGVPDRFSGSGSGTDFTLTISSLQAEDVAVYYCKQSYHHRTFGGGTKVEIK    200000
SAD10320_P03_E07 (antibody, V domains shown) VH: QVQLVQSGAEVKKPGASVKVSCKASGFNIKDYYMHWVRQAPGQRLEWMGWIDLENANTIYDAKFQGRVTITRDTSASTAYMELSSLRSEDTAVYYCARDAVHRYFYDVWGQGTLVTVSS VL: DIVMTQSPDSLAVSLGERATINCKSSQSLLNARTGKNYLAWYQQKPGQPPKLLIYWASTRESGVPDRFSGSGSGTDFTLTISSLQAEDVAVYYCKQSYHPRTFGGGTKVEIK    207000

Cited source for all entries: patent US20220380463A1
